All values here come from ChEMBL document CHEMBL1143804.

List of MIC values.
Tested on: Escherichia coli
methodNotes: Antibacterial activity against Escherichia coli DC2
Assay type: functional

smilesEntry: C[C@@H](O)[C@H]1C(=O)N2C(C(=O)O)=C(S[C@@H]3CN[C@H](C(=O)N(C)C)C3)[C@H](C)[C@H]12
studyTarget: Escherichia coli
MIC, µg/mL: 0.025
--
smilesEntry: CCCNS(=O)(=O)NC/C(=N\OC)[C@@H]1C[C@H](SC2=C(C(=O)O)N3C(=O)[C@H]([C@@H](C)O)[C@H]3[C@H]2C)CN1
studyTarget: Escherichia coli
MIC, µg/mL: 0.098
--
smilesEntry: CO/N=C(\CNS(=O)(=O)N(C)C)[C@@H]1C[C@H](SC2=C(C(=O)O)N3C(=O)[C@H]([C@@H](C)O)[C@H]3[C@H]2C)CN1
studyTarget: Escherichia coli
MIC, µg/mL: 0.098
--
smilesEntry: CCS(=O)(=O)NC/C(=N\OC)[C@@H]1C[C@H](SC2=C(C(=O)O)N3C(=O)[C@H]([C@@H](C)O)[C@H]3[C@H]2C)CN1
studyTarget: Escherichia coli
MIC, µg/mL: 0.391
--
smilesEntry: CCNS(=O)(=O)NC/C(=N\OC)[C@@H]1C[C@H](SC2=C(C(=O)O)N3C(=O)[C@H]([C@@H](C)O)[C@H]3[C@H]2C)CN1
studyTarget: Escherichia coli
MIC, µg/mL: 0.013
--
smilesEntry: CO/N=C(\CNC(C)=O)[C@@H]1C[C@H](SC2=C(C(=O)O)N3C(=O)[C@H]([C@@H](C)O)[C@H]3[C@H]2C)CN1
studyTarget: Escherichia coli
MIC, µg/mL: 0.025
